- System: T1, wild-type non-luminescent polypeptide (WT fragment of residues 1-156 of NanoLuc)
- T1 chain: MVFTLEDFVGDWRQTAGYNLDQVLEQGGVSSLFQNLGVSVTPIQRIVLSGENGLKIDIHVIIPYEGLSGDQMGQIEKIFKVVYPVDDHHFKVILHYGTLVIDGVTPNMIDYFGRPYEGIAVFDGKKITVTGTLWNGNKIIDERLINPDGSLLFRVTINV
- Experiment: luminescence complementation; PBS
Reported Kd by item:
Write down the numeric answer in nM and omit the unit.

- Binder: "NVTGYRLFKKISN [NLpep79]"
  Kd, nM: 487

Turning now to a further record.
Task: So what does the record say about Kd for GVTGWRLCERILA [NLpepWT] ?
Result: 1340
